- assayText: Pharmacokinetics in mice
- Format: in vivo
- experimentalSetup: mouse, plasma, iv, 10 mg/kg
assayEndpoint: Cmax

compound="COc1ncc(-c2ccc3ncn(-c4ccc(OCCO)cc4)c3c2)cc1NS(=O)(=O)c1ccc(F)cc1F [DHW-221]" result="67.4 µg/mL"

====

- assayText: Pharmacokinetics in mice
- Type: in vivo
- experimentalSetup: mouse, plasma, iv, 10 mg/kg
assayEndpoint: half-life (h)

structurenotation=COc1ncc(-c2ccc3ncn(-c4ccc(OCCO)cc4)c3c2)cc1NS(=O)(=O)c1ccc(F)cc1F assayendpoint=half-life valueunit=h numericvalue=3.7

====

- assayText: Pharmacokinetics in mice
- Assay type: in vivo
- experimentalSetup: mouse, plasma, iv, 10 mg/kg
assayEndpoint: Tmax (min)

structurenotation=COc1ncc(-c2ccc3ncn(-c4ccc(OCCO)cc4)c3c2)cc1NS(=O)(=O)c1ccc(F)cc1F assayendpoint=Tmax numericvalue=4.98

This collection of values is drawn from paper PMC8473641.
